- Assay system: HLA B*1503 (Homo sapiens, UniProt P01889, A329T/A93T/A95T/C349S/D201E/D98Y/E187L/E204Q/K202T/N87E/Q94N/R155S/R180L/S121R/S35A/V306I/V36M/Y140S/Y91S)
- Test summary: biochemical
- Format: binding
Where a SMILES comes first, the peptide text is derived from it.
Entries and their measured pIC50 follow.
Keep in mind that pIC50 stands for -log10 of concentration in molar terms.

Compound | Readout value
CC(C)C[C@H](NC(=O)[C@H](Cc1ccc(O)cc1)NC(=O)[C@H](CCC(N)=O)NC(=O)[C@H](Cc1ccccc1)NC(=O)[C@H](CCC(N)=O)NC(=O)[C@@H]1CCCN1C(=O)[C@H](CCC(N)=O)NC(=O)[C@H](CCC(N)=O)NC(=O)[C@@H](N)Cc1ccccc1)C(=O)O [3102.1233] (H-FQQPQFQYL-OH) | 7.64

-- ask State its pIC50 for this compound: CC(C)C[C@H](NC(=O)[C@H](CO)NC(=O)[C@H](CCC(N)=O)NC(=O)[C@@H](N)Cc1ccc(O)cc1)C(=O)N[C@@H](CO)C(=O)N1CCC[C@H]1C(=O)N1CCC[C@H]1C(=O)N1CCC[C@H]1C(=O)N[C@@H](Cc1ccccc1)C(=O)O [3102.1242] (H-YQSLSPPPF-OH)
-- reply 10.21

-- ask Respond only with pIC50 recorded for CC[C@H](C)[C@H](NC(=O)[C@@H](NC(=O)[C@@H](NC(=O)[C@H](C)NC(=O)[C@H](CCSC)NC(=O)[C@H](Cc1ccc(O)cc1)NC(=O)[C@H](C)NC(=O)[C@@H](N)CCCNC(=N)N)[C@@H](C)O)[C@@H](C)O)C(=O)N[C@@H](CC(C)C)C(=O)O [3102.1091] (H-RAYMATTIL-OH)
-- reply 7.74

-- ask Give pIC50 for CC(C)C[C@H](NC(=O)[C@@H](N)Cc1ccccc1)C(=O)N[C@@H](CO)C(=O)N[C@@H](CCC(=O)O)C(=O)N1CCC[C@H]1C(=O)N[C@@H](Cc1ccc(O)cc1)C(=O)N[C@@H](CO)C(=O)N[C@@H](Cc1ccc(O)cc1)C(=O)N[C@@H](Cc1ccccc1)C(=O)O [3102.1270] (H-FLSEPYSYF-OH)
-- reply 7.54

-- ask Return reported pIC50. Input compound: CC[C@H](C)[C@H](N)C(=O)N[C@@H](CC(C)C)C(=O)N[C@@H](CCSC)C(=O)N[C@H](C(=O)N[C@@H](Cc1ccccc1)C(=O)N[C@H](C(=O)N[C@@H](CO)C(=O)N[C@@H](CO)C(=O)N[C@@H](Cc1ccccc1)C(=O)O)[C@@H](C)CC)[C@@H](C)CC [3102.1302] (H-ILMIFISSF-OH)
-- reply 7.92

-- ask Retrieve pIC50 measured for `CC[C@H](C)[C@H](NC(=O)[C@H](Cc1ccc(O)cc1)NC(=O)[C@H](CCC(N)=O)NC(=O)[C@@H](N)Cc1ccc(O)cc1)C(=O)N[C@@H](Cc1ccccc1)C(=O)N[C@@H](CC(C)C)C(=O)N[C@@H](CO)C(=O)N[C@@H](Cc1ccccc1)C(=O)N[C@@H](Cc1ccccc1)C(=O)O` and print it.
-- reply 9.03

----------
- Assay system: HLA B*1501 (Homo sapiens, UniProt P01889, A329T/A93T/A95T/C349S/D201E/D98Y/E187L/E204Q/E69M/E70A/K202T/N87E/Q94N/R155S/R180W/S121R/S35A/S48A/V306I/V36M/Y140S/Y91S)
- Test summary: biochemical
Where a SMILES comes first, the peptide text is derived from it.
Measurement kind: pIC50
In plain terms, pIC50 is the concentration in mol/L turned into minus its base-10 logarithm.

// solved cases for pIC50 follow
Molecule | pIC50
CC(C)C[C@H](NC(=O)[C@H](C)NC(=O)[C@H](CCCNC(=N)N)NC(=O)[C@H](Cc1c[nH]cn1)NC(=O)[C@H](CC(C)C)NC(=O)[C@H](Cc1c[nH]c2ccccc12)NC(=O)[C@H](CCCNC(=N)N)NC(=O)[C@@H](NC(=O)[C@@H](N)Cc1ccccc1)C(C)C)C(=O)O [3102.0526] (H-FVRWLHRAL-OH) | 7.80
CC[C@H](C)[C@H](NC(=O)[C@@H](N)CCCNC(=N)N)C(=O)N[C@@H](CCCNC(=N)N)C(=O)N[C@@H](CCCNC(=N)N)C(=O)N[C@@H](Cc1ccccc1)C(=O)N[C@@H](CCCNC(=N)N)C(=O)N[C@@H](CCCNC(=N)N)C(=O)N1CCC[C@H]1C(=O)N[C@@H](CCSC)C(=O)O [3102.0681] (H-RIRRFRRPM-OH) | 7.44

# ---- query molecule ----
-- ask Determine its reported pIC50: CC(C)C[C@H](NC(=O)[C@H](Cc1ccccc1)NC(=O)[C@H](C)NC(=O)CNC(=O)[C@H](CS)NC(=O)[C@H](CC(C)C)NC(=O)[C@@H](N)CCC(=O)O)C(=O)N[C@@H](Cc1ccccc1)C(=O)N[C@@H](Cc1ccc(O)cc1)C(=O)O [3102.1015] (H-ELCGAFLFY-OH)
-- reply 8.12
